System: spontaneously hypertensive rats (SHR)
Experiment: Diuretic activity in spontaneously hypertensive rats
Format: in vivo, male spontaneously hypertensive rats (Okamoto strain)
Settings: 100 mg/kg by gavage with 0.9% sodium chloride loading 25 ml/kg; 0-5 hour urine
Returns satisfied if the recorded Sodium (urinary excretion) is greater than or equal to 2 mEQ/5 Hours, and not satisfied otherwise.

molecule=CCOC(=O)N=P(c1ccccc1)(c1ccccc1Cl)c1ccccc1Cl label=satisfied
molecule=COC(=O)N=P(c1ccccc1)(c1ccccc1)c1ccccc1C(F)(F)F label="not satisfied"
molecule="CC1CC1COC(=O)N=P(c1ccccc1)(c1ccccc1)c1ccccc1 (stereo not shown)" label="not satisfied"
molecule=COC(=O)N=P(c1ccccc1)(c1ccccc1)c1cccc(Cl)c1 label=satisfied
molecule="O=C(N=P(c1ccccc1)(c1ccccc1)c1ccccc1)OC1CCOC1 (stereo not shown)" label="not satisfied"
